Each recorded value in this set is attributed to patent US20100247589A1.

- System: tooth pellicle (thin film derived from salivary glycoproteins, formed in a human mouth) (human)
- Test description: phage ELISA on pellicle-coated bovine enamel, anti-M13-HRP, normalized to internal control
Readout name: O.D.450 (normalized)

Task: Which value of O.D.450 (normalized) has been reported for VNPNWVETQALHQPPGNT [DenP20] in the records?
Output: 1.3

Task: Same for APPTYQTASYPHNLPSKRKM [DenP28]
Output: 1.2

Task: Same question for FDGIGLGTATRHQNR [DenP12] please.
Output: 2.08

Task: What do we get for VEPATKNMREARSSTQMRRI [DenP4] ?
Output: 1.42

Task: Ok, now EFPYYNDNPPNPERHTLR [DenP7]
Output: 1.5
